target: T1, recombinant biotinylated human CD71 extracellular domain (human, UniProt P02786 89-760, biotinylated); assay: solution ELISA
T1 construct: extracellular domain; also called hCD71; huCD71 ECD
T1 sequence (P02786 other isoform, or with tags, fused parts or gaps): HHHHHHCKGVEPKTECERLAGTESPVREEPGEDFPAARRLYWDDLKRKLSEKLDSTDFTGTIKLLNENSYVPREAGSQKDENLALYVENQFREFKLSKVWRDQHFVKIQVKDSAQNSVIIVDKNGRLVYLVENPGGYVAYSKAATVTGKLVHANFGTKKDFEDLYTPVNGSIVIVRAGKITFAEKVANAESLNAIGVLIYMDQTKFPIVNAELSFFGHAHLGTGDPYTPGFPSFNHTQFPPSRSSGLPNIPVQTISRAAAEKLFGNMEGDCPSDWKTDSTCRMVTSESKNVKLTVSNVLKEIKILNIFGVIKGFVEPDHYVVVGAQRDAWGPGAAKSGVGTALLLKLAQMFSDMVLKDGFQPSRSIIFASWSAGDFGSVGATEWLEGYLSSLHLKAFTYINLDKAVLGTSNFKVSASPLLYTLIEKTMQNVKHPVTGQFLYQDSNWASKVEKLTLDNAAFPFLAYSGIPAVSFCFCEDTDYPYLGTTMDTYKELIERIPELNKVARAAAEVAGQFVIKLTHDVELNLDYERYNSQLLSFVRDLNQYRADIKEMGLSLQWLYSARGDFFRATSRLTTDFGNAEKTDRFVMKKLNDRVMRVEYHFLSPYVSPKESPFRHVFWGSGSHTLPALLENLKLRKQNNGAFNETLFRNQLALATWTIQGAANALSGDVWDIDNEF
experimental_endpoint: hCD71, RLU (RLU)

* SEQ ID NO 201 (designed binder, FN3 domain) MLPAPKNLVVSRVTEDSARLSWTAPDAAFDSFYIAYAEPRPDGEAISLWVPGSERSYDLTGLKPGTEYSVLIHGVKGGLLSSPLLAHFTT | 3.25e+06
* SEQ ID NO 154 (designed binder, FN3 domain) MLPAPKNLVVSRVTEDSARLSWTAPDAAFDSFYIAYAEPRPDGEAIGLWVPGSERSYDLTGLKPGTEYSVLIHGVKGGLLSSPLIAHFTT | 779000

I = SEQ ID NO 183 (designed binder, FN3 domain) MLPAPKNLVVSRVTEDSARLSWTAPDAAFDSFYIAYAEPRPDGEAILLDVPGSERSYDLTGLKPGTEYSVLIHGVKGGFPSMPLSAIFTT
II = SEQ ID NO 144 (designed binder, FN3 domain) MLPAPKNLVVSRVTEDSARLSWTAPDAAFDSFYIAYAEPRPDGEAIGLYVPGSERSYDLTGLKPGTEYSVLIHGVKGGLLSSPLGAFFTT
Given the listed items, does I or II have the lesser reported hCD71, RLU? Record your answer as the label of the chosen record.
II
